Catalogue of IC50 readings, one per entry.
Test system: NCI-H2122 cells
test.summary: NCI-H2122 CTG proliferation assay (120 h) (NSCLC, G12C)
Format: cell-based
condition.description: Homo sapiens
Answer as a quantity: numeral, then unit.

Some compounds with recorded IC50:
compound	test.result
C[C@H](Oc1cc([C@@H]2CCN(C)C2)nc(-c2noc3c2CCC[C@@]32CCCc3sc(N)c(C#N)c32)n1)[C@@H]1CCCN1C [II-37]	5500 nM
C[C@H](Oc1cc(N2CCNC[C@]23CCOC3)nc(-c2noc3c2CCC[C@@]32CCCc3sc(N)c(C#N)c32)n1)[C@@H]1CCCN1C [II-50]	2680 nM
C[C@H](Oc1cc([C@@H]2CCOC2)nc(-c2noc3c2CCC[C@@]32CCCc3sc(N)c(C#N)c32)n1)[C@@H]1CCCN1C [II-94]	834 nM
C[C@H](Oc1cc(N2CCN(C)CC2)nc(-c2noc3c2CCC[C@@]32CCCc3sc(N)c(C#N)c32)n1)[C@@H]1CCCN1C [II-55]	4910 nM
C[C@H](Oc1cc(C2CCCO2)nc(-c2noc3c2CCC[C@@]32CCCc3sc(N)c(C#N)c32)n1)[C@@H]1CCCN1C (stereo partly shown) [II-44]	1580 nM

For the compound shown here, C[C@H](Oc1cc(-c2ccn(C3COC3)n2)nc(-c2noc3c2CCC[C@@]32CCCc3sc(N)c(C#N)c32)n1)[C@@H]1C[C@H](F)CN1C [II-83] , give the reported IC50.
3820 nM

Now consider C[C@H](Oc1cc(N2CC[C@H](N3CCCCC3)C2)nc(-c2noc3c2CCC[C@@]32CCCc3sc(N)c(C#N)c32)n1)[C@@H]1CCCN1C [II-12] .
1390 nM

Now consider C[C@H](Oc1cc(-n2ccnc2Cl)nc(-c2noc3c2CCC[C@@]32CCCc3sc(N)c(C#N)c32)n1)[C@@H]1CCCN1C [II-93] .
1560 nM

----------
Test system: SAS cells
test.summary: SAS CTG proliferation assay (120 h) (HNSCC, wt amplified)
Format: cell-based
metric.name: IC50 (nM)
Just the number in nM, nothing appended.

Some compounds with recorded IC50:
compound	measured.target	test.result
CO[C@H]1CCN(C)[C@@H]1[C@H](C)Oc1cc(-n2ccc(C(=O)N[C@@H]3CCOC3)n2)nc(-c2onc3c2CCC[C@@]32CCCc3sc(N)c(C#N)c32)n1 [I-53]	SAS cells	13
C[C@H](Oc1cc(N2CC3COCC(C2)N3)nc(-c2noc3c2CCC[C@@]32CCCc3sc(N)c(C#N)c32)n1)[C@@H]1CCCN1C [II-160]	SAS cells	821
C[C@H](Oc1cc(-n2cc(Cn3ccnc3)nn2)nc(-c2noc3c2CCC[C@@]32CCCc3sc(N)c(C#N)c32)n1)[C@@H]1CCCN1C [II-113]	SAS cells	381
C[C@H](Oc1cc(N2CCN(C)C3(COC3)C2)nc(-c2noc3c2CCC[C@@]32CCCc3sc(N)c(C#N)c32)n1)[C@@H]1CCCN1C [II-13]	SAS cells	450
C[C@H](Oc1cc(-n2cncc3ccnc2-3)nc(-c2onc3c2CCC[C@@]32CCCc3sc(N)c(C#N)c32)n1)[C@@H]1CCCN1C [I-14]	SAS cells	25

Pending compound:
For the compound shown here, C[C@H](Oc1cc(C2=CCNCC2)nc(-c2noc3c2CCC[C@@]32CCCc3sc(N)c(C#N)c32)n1)[C@@H]1CCCN1C [II-164] , give the reported IC50.
1500

----------
System: KRAS G12C-dependent Ba/F3 cells
test.summary: Ba/F3 proliferation assay, KRAS G12C
Type: cell-based
condition.description: Mus musculus, BaF3, 72 h, AlamarBlue
Protocol: Plasmids containing KRASG12 mutants (i.e. […], G12C, G12V) are obtained from GeneScript. To generate KRASG12-dependent Ba/F3 models, Ba/F3 cells are transduced with retroviruses containing vectors that harbor KRASG12 isoforms. […] Compounds are added using an Access Labcyte Workstation with a Labcyte Echo 550 or 555 accoustic dispenser. […] AlamarBlue™ (ThermoFisher), a viability stain, is added and fluorescence measured in the PerkinElmer Envision HTS Multilabel Reader. […]
Catalogue of IC50 readings, one per entry.
Just the number in nM, nothing appended.

Some compounds with recorded IC50:
compound	IC50 [nM]
C[C@H](Oc1cc(-c2ccn(C[C@@H](C)O)n2)nc(-c2noc3c2CCC[C@@]32CCCc3sc(N)c(C#N)c32)n1)[C@@H]1CCCN1C [II-117]	7
C[C@H](Oc1cc(-n2cc3c(n2)CNC3)nc(-c2noc3c2CCC[C@@]32CCCc3sc(N)c(C#N)c32)n1)[C@@H]1CCCN1C [II-168]	62
C[C@H](Oc1cc(N2CCNC2=O)nc(-c2noc3c2CCC[C@@]32CCCc3sc(N)c(C#N)c32)n1)[C@@H]1CCCN1C [II-64]	9
COCCNC(=O)c1ccn(-c2cc(O[C@@H](C)[C@@H]3CCCN3C)nc(-c3noc4c3CCC[C@@]43CCCc4sc(N)c(C#N)c43)n2)n1 [II-195]	2
C[C@H](Oc1cc(N2C[C@H](C)NC3(CC3)C2)nc(-c2onc3c2CCC[C@@]32CCCc3sc(N)c(C#N)c32)n1)[C@@H]1CCCN1C [I-8]	106

Pending compound:
For the compound shown here, CC(=O)N1CCN(c2cc(O[C@@H](C)[C@@H]3CCCN3C)nc(-c3noc4c3CCC[C@@]43CCCc4sc(N)c(C#N)c43)n2)CC12CC2 [II-178] , give the reported IC50.
31

----------
test.summary: Caco-2 assay (permeability PappAB, PappBA, efflux ratio)
Format: in vitro ADME
condition.description: human, Caco-2; efflux ratio PappBA/PappAB; 10 μM test compound, pH 7.4; read-out: Caco ER
Short version: efflux ratio at 90 min, 10 μM at least 7 is Condition met, less is Condition not met.

compound	category
C[C@H](Oc1cc(-c2ccn(C)n2)nc(-c2noc3c2CCC[C@@]32CCCc3sc(N)c(C#N)c32)n1)[C@@H]1C[C@H](F)CN1C	Condition not met
C[C@H](Oc1cc(N2CCN[C@@H](C)C2)nc(-c2noc3c2CCC[C@@]32CCCc3sc(N)c(C#N)c32)n1)[C@@H]1CCCN1C	Condition met
C[C@H](Oc1cc([C@H]2CCOC2)nc(-c2noc3c2CCC[C@@]32CCCc3sc(N)c(C#N)c32)n1)[C@@H]1CCCN1C	Condition not met

Is the recorded value of efflux ratio at 90 min, 10 μM equal to or greater than 7 for this compound? C[C@H](Oc1cc(-n2ccc(-c3cn(CC4(C)COC4)nn3)n2)nc(-c2noc3c2CCC[C@@]32CCCc3sc(N)c(C#N)c32)n1)[C@@H]1CCCN1C
Condition not met

Now consider CO[C@@H]1C[C@@H]([C@H](C)Oc2cc(N3CCN(C)C4(COC4)C3)nc(-c3noc4c3CCC[C@@]43CCCc4sc(N)c(C#N)c43)n2)N(C)C1 .
Condition met

Now consider C[C@H](Oc1cc(-n2cncc3ccnc2-3)nc(-c2onc3c2CCC[C@@]32CCCc3sc(N)c(C#N)c32)n1)[C@@H]1CCCN1C .
Condition not met

Now consider C[C@H](Oc1cc(N2CCC(C#N)C2)nc(-c2noc3c2CCC[C@@]32CCCc3sc(N)c(C#N)c32)n1)[C@@H]1CCCN1C (stereo partly shown) .
Condition met

Now consider C[C@H](Oc1cc(N2CC(N(C)C)C2)nc(-c2noc3c2CCC[C@@]32CCCc3sc(N)c(C#N)c32)n1)[C@@H]1CCCN1C .
Condition met

Now consider C[C@H](Oc1cc(-n2cc3c(n2)CCNC3)nc(-c2noc3c2CCC[C@@]32CCCc3sc(N)c(C#N)c32)n1)[C@@H]1CCCN1C .
Condition met

----------
measured.target: KRAS (G12C)::SOS1 (Homo sapiens (Human), UniProt P01116, C118S/C51S/C80L/G12C)
Sequence (P01116 other isoform, or with tags, fused parts or gaps G12C/C51S/C80L/C118S): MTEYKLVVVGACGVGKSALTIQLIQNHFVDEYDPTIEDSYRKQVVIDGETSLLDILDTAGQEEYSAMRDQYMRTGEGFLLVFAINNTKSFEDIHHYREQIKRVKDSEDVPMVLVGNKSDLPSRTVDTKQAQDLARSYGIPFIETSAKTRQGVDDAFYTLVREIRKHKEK
test.summary: KRAS::SOS1 AlphaScreen binding assay, KRAS G12C
Procedure: This assay can be used to examine the potency with which compounds according to the invention binding to (mutated) KRAS inhibit the protein-protein interaction between SOS1 and (mutated) KRAS e.g., KRAS WT, KRAS G12C, KRAS G12D, KRAS G12V, KRAS G13D. […] Plates are kept at room temperature in a darkened incubator. After an additional 60 minutes incubation time the signal is measured in a PerkinElmer Envision HTS Multilabel Reader using the AlphaScreen specs from PerkinElmer. […]
metric.name: IC50 (nM)
Just the number in nM, nothing appended.

Some compounds with recorded IC50:
compound.structure.string	IC50 / nM
C[C@H](Oc1cc(N2C[C@H](C)N(C)[C@@H](C)C2)nc(-c2noc3c2CCC[C@@]32CCCc3sc(N)c(C#N)c32)n1)[C@@H]1CCCN1C	5
C[C@H](Oc1cc(-n2ccnc2)nc(-c2noc3c2CCC[C@@]32CCCc3sc(N)c(C#N)c32)n1)[C@@H]1C[C@@H](F)CN1C	2

Form entry - test system: KRAS (G12C)::SOS1 (Homo sapiens (Human), UniProt P01116, C118S/C51S/C80L/G12C); read-out: IC50; compound: C[C@H](Oc1cc(N2CCNC[C@@]23CCOC3)nc(-c2onc3c2CCC[C@@]32CCCc3sc(N)c(C#N)c32)n1)[C@@H]1CCCN1C
7

Now consider COCCNC(=O)c1ccn(-c2cc(O[C@@H](C)[C@@H]3CCCN3C)nc(-c3onc4c3CCC[C@@]43CCCc4sc(N)c(C#N)c43)n2)n1 .
1

Now consider C[C@@H]1CN(c2cc(O[C@@H](C)[C@@H]3CCCN3C)nc(-c3noc4c3CCC[C@@]43CCCc4sc(N)c(C#N)c43)n2)CCN1 .
5

Now consider C[C@H](Oc1nc(-c2noc3c2CCC[C@@]32CCCc3sc(N)c(C#N)c32)nc(N2CCNC3(CC3)C2)c1F)[C@@H]1C[C@@H](F)CN1C .
2
